Molecular target: T1, interleukin-1β converting enzyme (ICE), as used in the enzyme assays (UniProt P29466 120-297; P29466 317-404, limits assumed)
T1 construct: also called IL-1β Converting Enzyme
T1 sequence (looked up) 1: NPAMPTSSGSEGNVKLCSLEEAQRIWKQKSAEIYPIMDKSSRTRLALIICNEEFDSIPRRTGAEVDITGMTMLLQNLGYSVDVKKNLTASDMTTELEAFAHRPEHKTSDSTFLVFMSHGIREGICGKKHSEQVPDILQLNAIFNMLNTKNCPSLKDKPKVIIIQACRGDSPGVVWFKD
T1 sequence (looked up) 2: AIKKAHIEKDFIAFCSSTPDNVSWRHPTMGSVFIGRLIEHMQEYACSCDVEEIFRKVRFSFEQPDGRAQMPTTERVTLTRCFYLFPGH
Assay: ICE enzyme inhibition, UV-visible substrate Suc-YVAD-pNA
Starred links: 1 amine or outer side, 2 acyl side, 3 side chain; linkers in the order of their positions; H or OH if unused. Non-standard residues stand in square brackets, D forms with d. No end group written: not given here. *: point of attachment. Asp‑al = Asp with the carboxyl reduced to aldehyde (3-amino-4-oxobutanoic acid), O=C[C@H](CC(=O)[*:3])N[*:1]; X2 = 4‑methoxybenzoxazol‑2‑yl ketone, COc1cccc2oc(*)nc12; Pro(4-benzyloxy) = 4-benzyloxyproline; Hyp = O=C(O)[C@@H]1C[C@@H](O)CN1
EXPERIMENTAL READOUT: Ki (nM)

Check the records and state Ki for Ac-YV[Hyp][Asp‑al] (not fully specified (C-terminus)) [N-[N-Acetyl-tyrosinyl-valinyl-(4-hydroxyprolinyl)]-3-amino-4-oxobutanoic acid]
12

Check the records and state Ki for Ac-YVAD-X2 (SMILES COc1cccc2oc(C(=O)[C@H](CC(=O)O)NC(=O)[C@H](C)NC(=O)[C@@H](NC(=O)[C@H](Cc3ccc(O)cc3)NC(C)=O)C(C)C)nc12, The printed name begins with 't-Butyl', but the compound was made by the method for the acid 69a and its printed formula C31H37N5O10 is that of the free acid; also called 69b)
50

Check the records and state Ki for Ac-YV[Pro(4-benzyloxy)][Asp‑al] (not fully specified (C-terminus)) [N-[N-Acetyl-tyrosinyl-valinyl-(4-benzyloxy)prolinyl]-3-amino-4-oxobutanoic acid]
10
